Where these numbers come from: paper PMC5075052

Reported pIC50 by item:
Test system: P. aeruginosa PA14
procedureDetails: Monospecies bacterial biofilm inhibition, static peg assay
Type: cell-based, Pseudomonas aeruginosa
statedConditions: Pseudomonas aeruginosa, PA14, P. aeruginosa PA14, 25°C; read-out: BIC50
pIC50: −log10 of the molar value.

# compound, valueComparator, pIC50
data = [
    ("CCCCCCCCn1c(-c2ccc(Cl)cc2)cnc1N", "=", 5.40),
    ("CCCCCCCCn1c(-c2ccccc2)cnc1NC1CCCC1", "<", 3.40),
    ("CCCCCCCCn1c(-c2ccccc2)cnc1NCC(C)C", "<", 3.40),
    ("O=c1cc(-c2ccccc2)oc2cc(O)c(O)c(O)c12 [Baicalein, reference compound]", "<", 3.40),
    ("CCCCCCCCn1c(-c2ccc(Cl)cc2)cnc1NC1CCCC1", "<", 3.40),
    ("CC(C)CNc1ncc(-c2ccc(Cl)cc2)[nH]1", "=", 6.05),
    ("CCCCCCCCn1c(-c2ccc(Cl)c(Cl)c2)cnc1NC1CCCC1", "<", 3.40),
    ("CCCCNc1ncc(-c2ccc(Br)cc2)[nH]1", "=", 5.01),
    ("Clc1ccc(-c2cnc(NC3CCCC3)[nH]2)cc1", "=", 4.87),
    ("CCCCCCCCn1c(-c2ccc(Br)cc2)cnc1NC1CCCC1", "<", 3.40),
]

---

System: S. epidermidis
procedureDetails: Monospecies bacterial biofilm inhibition, static peg assay
Assay type: cell-based, Staphylococcus epidermidis
statedConditions: Staphylococcus epidermidis, 37°C, read-out: IC50 (planktonic growth)
Reported IC50 by item:

# molecule, IC50
measured = [
    ("CCCCNc1ncc(-c2ccc(Br)cc2)[nH]1", "54.4 µM"),
    ("O=C(N/N=C/c1ccc([N+](=O)[O-])o1)c1ccc(O)cc1 [Nifuroxazide, reference compound]", "~43.4 µM"),
    ("Clc1ccc(-c2cnc(NC3CCCC3)[nH]2)cc1", "39.5 µM"),
    ("CCCCCn1c(-c2ccccc2)cnc1N", "~329 µM"),
    ("CCCCCCCCn1c(-c2ccc(Cl)cc2)cnc1N", "~11.1 µM"),
    ("Brc1ccc(-c2cnc(NCCn3cc(C4CC4)nn3)[nH]2)cc1", "> 400 µM"),
    ("O=c1cc(-c2ccccc2)oc2cc(O)c(O)c(O)c12 [Baicalein, reference compound]", "> 400 µM"),
    ("CC(C)CNc1ncc(-c2ccc(Cl)cc2)[nH]1", "86.2 µM"),
]

---

Reported activity at 100 µM by item:
Test system: C. albicans SC5314 + S. epidermidis
procedureDetails: Mixed C. albicans-S. epidermidis biofilm, selective plating CFU
Assay type: cell-based, Candida albicans + Staphylococcus epidermidis
statedConditions: 37°C, 100 μM compound, read-out: % CFU survival, C. albicans
propertyLabel: activity at 100 µM

# compound, endpointResult
rows = [
    ("Clc1ccc(-c2cnc(NC3CCCC3)[nH]2)cc1 [Compound 5]", "595%"),
    ("CC(C)CNc1ncc(-c2ccc(Cl)cc2)[nH]1 [Compound 3]", "235%"),
    ("CCCCCCCCn1c(-c2ccccc2)cnc1NC1CCCC1 [Compound 8e]", "2.5%"),
    ("CCCCCCCCn1c(-c2ccc(Cl)c(Cl)c2)cnc1NCC(C)C [Compound 8d]", "1.4%"),
    ("CCCCCCCCn1c(-c2ccc(Cl)c(Cl)c2)cnc1NC1CCCC1 [Compound 8h]", "3.5%"),
]
